Measured values drawn from PubChem BioAssay AID2284348 for this set.

system: Japanese medaka Peroxisome Proliferator-activated Receptor alpha (PPARa), gene 100304458; assay: ATG_jmPPARa_EcoTox2: Attagene TRANS-FACTORIAL EcoTox-2 HepG2 Assay for Japanese medaka Peroxisome Proliferator-activated Receptor alpha (PPARa)
Inconclusive results are not listed. The source made the active and inactive calls. The calls were made as follows: active = hit-call score of the fitted dose curve at least 0.9, where 1 is the maximum; inconclusive = response in the unintended direction; inactive = score below 0.9.
Tick one outcome: 1 (active), -1 (inactive)

Please review the following examples before continuing.
Request: Short answer needed: outcome of this test for `CC(C)(Oc1ccc(Cl)cc1)C(=O)O` ?
Response: -1

Request: How was `C[C@@H]1C[C@H]2[C@@H]3CCC4=CC(=O)C=C[C@]4(C)[C@@]3(F)[C@@H](O)C[C@]2(C)[C@@]1(O)C(=O)COP(=O)(O)O` classified in this test?
Response: -1

Request: Field: outcome | Entry: CC(C)(Oc1ccc(C2CC2(Cl)Cl)cc1)C(=O)O (configuration not stated)
Response: 1

Request: Could you check what this test reported for `Cc1cccc(Nc2cc(Cl)nc(SCC(=O)O)n2)c1C` ?
Response: 1

Request: Could you please tell me the result logged for `Cc1nc(-c2ccc(C(F)(F)F)cc2)sc1C(=O)NCc1ccc(OC(C)(C)C(=O)O)cc1` in this assay?
Response: 1

***
Request: GET /call?item= `CC(C)OC(=O)C(C)(C)Oc1ccc(C(=O)c2ccc(Cl)cc2)cc1` returns the recorded outcome of this test.
Response: -1

Request: I would be grateful if you could indicate the recorded call for `C[C@]12C=CC(=O)C=C1CC[C@@H]1[C@@H]2C(=O)C[C@@]2(C)[C@H]1CC[C@]2(O)C(=O)CO` .
Response: -1
